- Tested On: GGEc (Drosophila melanogaster, UniProt P34021)
- Construct: expressed in transfected cells; host or cells: 293 cells
- Sequence (P34021 329-878): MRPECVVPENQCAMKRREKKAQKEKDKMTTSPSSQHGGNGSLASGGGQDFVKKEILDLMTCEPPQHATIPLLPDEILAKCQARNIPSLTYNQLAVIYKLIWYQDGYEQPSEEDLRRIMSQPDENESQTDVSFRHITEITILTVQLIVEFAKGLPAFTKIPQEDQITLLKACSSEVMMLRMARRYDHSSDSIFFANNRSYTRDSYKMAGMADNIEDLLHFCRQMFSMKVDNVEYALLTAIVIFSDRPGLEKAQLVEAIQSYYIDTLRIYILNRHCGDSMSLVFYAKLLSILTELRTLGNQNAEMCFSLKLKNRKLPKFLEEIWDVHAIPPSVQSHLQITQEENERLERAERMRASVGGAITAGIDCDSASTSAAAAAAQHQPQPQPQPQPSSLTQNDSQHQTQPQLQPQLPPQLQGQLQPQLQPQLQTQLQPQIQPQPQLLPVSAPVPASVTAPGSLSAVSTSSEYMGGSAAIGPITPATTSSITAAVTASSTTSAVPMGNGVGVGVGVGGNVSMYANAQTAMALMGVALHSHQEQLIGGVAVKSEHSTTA
- Method Summary: Induction of GRE reporter G4M-77CO by chimeric receptor GGEc in 293 cells
- Format: cell-based
- Measurement Parameters: GRE reporter G4M-77CO
Property Label: relative efficacies of ecdysteroids as agonists for the chimeric receptor

                              smiles_string                                 tested_on  recorded_measurement
0  CC(C)CC[C@@H](O)[C@](C)(O)[C@H]1CC[C@@]2(O)C3=CC(=O)[C@@H]4C[C@@H](O)[C@@H](O)C[C@]4(C)[C@H]3CC[C@]12C  GGEc (Drosophila melanogaster, UniProt P34021)                  weak
